# Test system: CASKI
# Test Method Notes: Primary qHTS to identify gynecologic anti-cancer compounds using libraries of approved drugs and bioactive compounds (AID 1345084); note: nearly all actives have a fitted effect of over 55% in size
# Protocol Conditions: Gynecologic cancer cell panel viability, ATPlite luminescence, 48 h; series mostly up to 57.5 µM
# Excerpt: National Center for Advancing Translational Sciences [NCATS] Assay Overview: Chemotherapeutic drug responses vary from cancer to cancer and from patient to patient. […] ATPlite is a luminescence based assay reliant on the conversion of a luciferase substrate to light in the presence of ATP. As a cytotoxic compound will suppress growth and decrease the number of cells, the concentration of ATP will decrease, and less light signal will be detected in the well. […]
Inconclusive results are not listed. Calls of active or inactive are those of the source. Calls come from the whole dose curve; as a rule, active = well fitted cell-killing curve with a large enough effect; inconclusive = small, poorly fitted or top-dose-only effect, or effect the other way; inactive = flat fitted curve, though single readings scatter.
Measure: activity change, negative = cytotoxicity

Illustrative cases are given below, each with its answer.
Problem: Look up activity change, negative = cytotoxicity: `O=C(NCCN1CCN(c2cccc3ccc(O)cc23)CC1)c1ccc(F)cc1`
Result: inactive

Problem: Look up activity change, negative = cytotoxicity: Fc1ccc(N2CCN(CCC3OCCc4ccccc43)CC2)cc1 (stereo not given)
Result: inactive

Problem: Look up activity change, negative = cytotoxicity: `C=C1C(=O)O[C@@H]2C[C@@]3(C)C[C@@H](O)C[C@H](C)C3=C[C@H]12`
Result: inactive

Problem: Look up activity change, negative = cytotoxicity: COC(CCc1ccc(O)cc1)CC(=O)CCc1ccc(O)cc1 (stereo not given)
Result: inactive

Then this compound:
Problem: Look up activity change, negative = cytotoxicity: C=C(COC(=O)C(O)C(O)CN)C12OC1C1(C)C(=CC2=O)C(O)C(O)CC1C (stereo not given)
Result: inactive

###

# Tested on: Tov112D
# Test Method Notes: Primary qHTS to identify gynecologic anti-cancer compounds using libraries of approved drugs and bioactive compounds (AID 1345084); note: nearly all actives have a fitted effect of over 55% in size
# Protocol Conditions: Gynecologic cancer cell panel viability, ATPlite luminescence, 48 h; series mostly up to 57.5 µM
Records with an inconclusive call do not appear. Active and inactive are the calls of the source. Calls follow the shape of the dose curve; as a rule, active = well fitted cell-killing curve with a large enough effect; inconclusive = small, poorly fitted or top-dose-only effect, or effect the other way; inactive = flat fitted curve, though single readings scatter.
Pick one: active, inactive

Problem: Called result for `O=C(O)c1ccc(S(=O)(=O)N(Cc2ccc(OC(F)(F)F)cc2)c2ncc(C(F)(F)F)cc2Cl)cc1`
Result: inactive

Problem: Called result for `CC(C)CCNc1ncccc1C(=O)N1CCN(Cc2ccccc2)CC1`
Result: inactive

Problem: Called result for COC1CC(O[C@H]2CC[C@]3(C)C4CC[C@@]5(C)C(=O)[C@]4(CC[C@@H]3C2)CC[C@@H]5C2=CC(=O)OC2)OC(C)C1OC1OC(COC2OC(CO)C(O)C(O)C2O)C(O)C(O)C1O (stereo partly drawn)
Result: active

Problem: Called result for `CC(=O)O[C@H]1C[C@H](OC(C)=O)[C@]2(C)[C@H](CC[C@@]34O[C@@H]3C3=C(C)C(=O)O[C@@H]3C[C@H]42)C1(C)C`
Result: inactive

Problem: Called result for `COc1ccc(-c2csc(NC(=O)[C@H]3CCCCN3S(=O)(=O)c3ccc(C)cc3)n2)cc1`
Result: inactive

---
Problem: Called result for `NC(N)=NC(=O)c1cnn(-c2cccc3ncccc23)c1C1CC1`
Result: inactive

Problem: Called result for `N#Cc1cccc(C(=O)Nc2cc(-c3ccccc3)nn2-c2ccccc2)c1`
Result: inactive

Problem: Called result for `COc1cc(CCc2ccc(OCC=C(C)C)cc2)cc(OC)c1OC`
Result: inactive

Problem: Called result for `O=C(NNc1nc2cc(F)ccc2n2cccc12)c1cnccn1`
Result: active

Problem: Called result for `CN1CCN(c2ccc(Nc3cc(-c4cccc(-n5ccc6cc(C7CC7)cc(F)c6c5=O)c4CO)cn(C)c3=O)nc2)CC1`
Result: inactive

Problem: Called result for CC1(C)CC[C@]2(C(=O)O)CC[C@]3(C)C(=CCC4[C@@]5(C)C[C@@H](O)[C@H](O)C(CO)(CO)C5CC[C@]43C)C2[C@@H]1O (stereo partly drawn)
Result: active

Problem: Called result for `CCOC(=O)c1cnc2ccc(-c3cncc(NS(=O)(=O)c4ccccc4)c3)cn12`
Result: active

Problem: Called result for `NC(N)=N/N=C/c1ccccc1Cl`
Result: inactive

Problem: Called result for `CNC(=O)[C@@H](c1ccccc1)N1CCc2cc(OC)c(OC)cc2[C@@H]1CCc1ccc(C(F)(F)F)cc1`
Result: inactive

Problem: Called result for COc1cc(O)cc(OC2OC(CO)C(O)C(O)C2O)c1 (stereo not drawn)
Result: inactive

Problem: Called result for `CCn1nc(C2CCN(C(=O)CCO)CC2)nc1-c1cnc(N)c(-c2nnc(C(C)(C)C)o2)n1`
Result: inactive

Problem: Called result for `Cn1cc(-c2cnn3c(N)c(Br)c([C@@H]4CCCNC4)nc23)cn1`
Result: inactive

Problem: Called result for `Cc1cc(C(=O)Nc2cc(Nc3ccc4c(/C=C/c5ccccn5)n[nH]c4c3)ccc2F)n(C)n1`
Result: inactive
